assay-summary: Inhibition of Cryptosporidium hominis DHFR-TS expressed in Escherichia coli
measure: IC50 (µM)
Give bare numbers, in µM.

Below are worked cases with known answers.
- COc1cc(C(O)C#Cc2cnc(N)nc2N)cc(OC)c1OC (configuration not stated): 194
- COc1cc(CC#Cc2c(C)nc(N)nc2N)cc(OC)c1OC: 10.2
- COc1cc(C(O)C#Cc2c(C)nc(N)nc2N)cc(OC)c1OC (configuration not stated): 141

For each of the items listed, what is its IC50?
1. COc1cc([C@@H](C)C#Cc2c(C)nc(N)nc2N)cc(OC)c1OC
2. COc1cc(C(C)C#Cc2c(C)nc(N)nc2N)cc(OC)c1OC (configuration not stated)

**Result**
0.038
0.169

Could you report IC50 for every entry in the following list?
1. COc1cc([C@H](C)C#Cc2c(C)nc(N)nc2N)cc(OC)c1OC
2. CN(Cc1cnc2nc(N)nc(N)c2n1)c1ccc(C(=O)N[C@@H](CCC(=O)O)C(=O)O)cc1 [METHOTREXATE]
3. COc1cc(C(C#Cc2c(C)nc(N)nc2N)OC)cc(OC)c1OC (configuration not stated)
4. COc1cc(CC#Cc2cnc(N)nc2N)cc(OC)c1OC
5. COc1cc(C(C#Cc2cnc(N)nc2N)OC)cc(OC)c1OC (configuration not stated)

**Result**
1. 1.91
2. 0.023
3. 5
4. 86.1
5. 133

----------
measured-target: Bifunctional dihydrofolate reductase-thymidylate synthase (Toxoplasma gondii)
Sequence (whole entry): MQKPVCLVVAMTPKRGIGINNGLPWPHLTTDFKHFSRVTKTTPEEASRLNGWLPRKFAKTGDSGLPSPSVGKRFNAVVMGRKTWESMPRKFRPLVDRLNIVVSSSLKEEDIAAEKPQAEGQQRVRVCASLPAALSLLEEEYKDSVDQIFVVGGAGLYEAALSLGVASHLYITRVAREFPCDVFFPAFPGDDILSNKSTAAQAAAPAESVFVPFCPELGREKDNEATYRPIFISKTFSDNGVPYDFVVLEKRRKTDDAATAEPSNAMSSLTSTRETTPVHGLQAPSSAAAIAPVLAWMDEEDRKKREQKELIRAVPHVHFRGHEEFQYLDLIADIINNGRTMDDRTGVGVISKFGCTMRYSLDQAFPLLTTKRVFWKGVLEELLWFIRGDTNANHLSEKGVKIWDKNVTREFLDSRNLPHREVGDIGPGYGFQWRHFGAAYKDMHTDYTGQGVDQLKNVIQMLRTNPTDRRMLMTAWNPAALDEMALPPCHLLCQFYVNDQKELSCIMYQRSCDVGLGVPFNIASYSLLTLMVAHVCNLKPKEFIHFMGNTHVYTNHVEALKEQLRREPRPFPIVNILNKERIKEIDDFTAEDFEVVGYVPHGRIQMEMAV
assay-summary: Ligand efficiency at Toxoplasma gondii DHFR-TS
Exercise: state measured Activity for each of the compounds provided.
Give bare numbers.

// solved cases for Activity follow
• CN(Cc1cnc2nc(N)nc(N)c2n1)c1ccc(C(=O)N[C@@H](CCC(=O)O)C(=O)O)cc1 [METHOTREXATE] = 0.33
• COc1cc([C@@H](C)C#Cc2c(C)nc(N)nc2N)cc(OC)c1OC = 0.49
• COc1cc(Cc2cnc(N)nc2N)cc(OC)c1OC = 0.33

Next up:
**Query** Name the reported Activity value associated with the compound "COc1cc(CC#Cc2c(C)nc(N)nc2N)cc(OC)c1OC"
**Result** 0.35

----------
Please go through the items and note down their Activity.
Tested on: Cryptosporidium hominis
assay-summary: Ligand efficiency at Cryptosporidium hominis DHFR-TS

Answered cases to consult:
* COc1cc(CC#Cc2c(C)nc(N)nc2N)cc(OC)c1OC | 0.29
* CN(Cc1cnc2nc(N)nc(N)c2n1)c1ccc(C(=O)N[C@@H](CCC(=O)O)C(=O)O)cc1 [METHOTREXATE] | 0.32
* COc1cc([C@@H](C)C#Cc2c(C)nc(N)nc2N)cc(OC)c1OC | 0.41

With those in mind, consider the next compound.
**Query** Tell me the measured Activity of "COc1cc(Cc2cnc(N)nc2N)cc(OC)c1OC" , please.
**Result** 0.32
